src = patent US11530244B2

ASSAYED_SYSTEM: PCSK9 (Homo sapiens (Human), UniProt Q8NBP7)
Sequence (Q8NBP7 153-692): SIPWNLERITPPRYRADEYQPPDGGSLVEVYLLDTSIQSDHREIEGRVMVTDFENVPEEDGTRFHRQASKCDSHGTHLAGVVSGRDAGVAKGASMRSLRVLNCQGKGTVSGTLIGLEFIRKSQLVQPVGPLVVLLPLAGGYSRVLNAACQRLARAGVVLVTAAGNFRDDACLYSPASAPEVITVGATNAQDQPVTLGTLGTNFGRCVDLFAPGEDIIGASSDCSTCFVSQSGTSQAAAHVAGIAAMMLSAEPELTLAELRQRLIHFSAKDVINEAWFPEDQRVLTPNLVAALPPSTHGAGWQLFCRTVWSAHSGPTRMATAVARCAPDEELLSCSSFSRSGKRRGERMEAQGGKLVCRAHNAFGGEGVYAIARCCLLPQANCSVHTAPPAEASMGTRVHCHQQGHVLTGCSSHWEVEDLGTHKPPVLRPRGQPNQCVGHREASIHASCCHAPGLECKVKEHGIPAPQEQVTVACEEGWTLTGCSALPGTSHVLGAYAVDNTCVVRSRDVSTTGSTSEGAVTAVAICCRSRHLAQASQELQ
EXPERIMENT: PCSK9 Alexa FRET Standard assay (displacement of AlexaFluor647 tagged cyclic peptide Reagent A)
Assay type: binding
PROTOCOL_CONDITIONS: PCSK9 Alexa FRET Standard assay, 0.5 nM PCSK9, 20 nM AF cyclic peptide Reagent A; read-out: IC50
Starred links: 1 amine or outer side, 2 acyl side, 3 side chain; linkers in the order of their positions; H or OH if unused. Positions of bridges follow the written chain, without caps; N, C: chain ends. Non-standard residues stand in square brackets, D forms with d. Residues, ends and D or L forms follow the SMILES beside them. Phe(3-CH2NH2) = O=C([C@H](Cc1cccc(CN[*:3])c1)N[*:1])[*:2]; Ala(imidazol-2-yl) = N[C@@H](Cc1ncc[nH]1)C(=O)O; Trp(5-F) = N[C@@H](Cc1c[nH]c2ccc(F)cc12)C(=O)O; X3 = O=C(CCSCc1cc(F)cc(CSCCN[*:1])c1)[*:2]; X4 = O=C(CCSCc1cccc(CSCCN[*:1])c1)[*:2]; AEF = NCCOc1ccc(C[C@H](N)C(=O)O)cc1; d(aThr) = C[C@@H](O)[C@@H](N)C(=O)O; X6 = O=C(Cc1ccc(CN[*:2])cc1)[*:1]; Aad = N[C@@H](CCCC(=O)O)C(=O)O; Lys(Me) = CNCCCC[C@H](N)C(=O)O; Suc = O=C(CCC(=O)[*:2])[*:1]; αMeP = C[C@@]1(C(=O)O)CCCN1

{"columns": ["COMPOUND", "IC50"],
 "data": [
  ["COc1ccc(C[C@@H]2NC(=O)[C@@H]([C@@H](C)O)NC(=O)[C@H](CC(=O)O)NC(=O)[C@H](Cc3c[nH]c4ccc(F)cc34)NC(=O)[C@H](Cc3cccc(CN)c3)NC(=O)[C@@H](C)NC(=O)[C@H](C)NC(=O)CCSCc3cccc(c3)CSCCNC(=O)[C@]3(C)CCCN3C2=O)cc1 [Compound 384] (cyclo(A[dA][Phe(3-CH2NH2)][Trp(5-F)]D[d(aThr)]Y(Me)[αMeP][X4]))", "21 to 50 µM"],
  ["COc1ccc(C[C@@H]2NC(=O)[C@H](Cc3cnc[nH]3)NC(=O)[C@H](CC(=O)O)NC(=O)[C@H](Cc3c[nH]c4ccc(F)cc34)NC(=O)[C@H](Cc3c[nH]c4ccc(F)cc34)NC(=O)[C@@H](C)NC(=O)CCC(=O)NCCOc3ccc(cc3)C[C@@H](C(N)=O)NC(=O)[C@]3(C)CCCN3C2=O)cc1 [Compound 436] ([dA][Trp(5-F)][Trp(5-F)]DHY(Me)[αMeP][AEF]-NH2; linker N-8 via Suc)", "21 to 50 µM"],
  ["COc1ccc(C[C@@H]2NC(=O)[C@H](Cc3cnc[nH]3)NC(=O)[C@H](CC(=O)O)NC(=O)[C@H](Cc3c[nH]c4ccc(F)cc34)NC(=O)[C@H](Cc3c[nH]c4ccc(F)cc34)NC(=O)[C@@H](C)NC(=O)[C@H](NC(C)=O)Cc3cn(nn3)-c3ccc(cc3)C[C@@H](C(N)=O)NC(=O)[C@]3(C)CCCN3C2=O)cc1 [Compound 381]", "1 to 12.1 µM"],
  ["CNCCCC[C@@H]1NC(=O)CCSCc2cc(F)cc(c2)CSCCNC(=O)[C@]2(C)CCCN2C(=O)[C@H](Cc2ccc(OC)cc2)NC(=O)[C@H](Cc2ncc[nH]2)NC(=O)[C@H](CC(=O)O)NC(=O)[C@H](Cc2c[nH]c3ccc(F)cc23)NC(=O)[C@H](Cc2c[nH]c3ccc(F)cc23)NC(=O)[C@@H](C)NC1=O [Compound 468] (cyclo(D[Ala(imidazol-2-yl)]Y(Me)[αMeP][X3][Lys(Me)][dA][Trp(5-F)][Trp(5-F)]))", "1 to 12.1 µM"],
  ["COc1ccc(C[C@@H]2NC(=O)[C@H](Cc3cnc[nH]3)NC(=O)[C@H](CC(=O)O)NC(=O)[C@H](Cc3c[nH]c4ccc(F)cc34)NC(=O)[C@H](Cc3c[nH]c4ccc(F)cc34)NC(=O)[C@@H](C)NC(=O)[C@H](NC(C)=O)CCCCNC(=O)Cc3ccc(cc3)CNC(=O)CCC[C@@H](C(N)=O)NC(=O)[C@]3(C)CCCN3C2=O)cc1 [Compound 433] (Ac-[dK][dA][Trp(5-F)][Trp(5-F)]DHY(Me)[αMeP][Aad]-NH2; linker 1-9 via X6)", "0.1 to 1 µM"]
]}
